Attribution: PubChem BioAssay (NCI)

tested on: NCI-H226 lung; experiment: NCI-60 one-dose screen, 48 h; conditions: 10 µM unless noted
Compounds without any hit were thinned out: in the full panel of roughly 83,000, 20% have a hit. Calls of active or inactive are those of the source. How the source made its calls: active means growth percent below 10; inactive means the rest.
Hi! Could you answer with just one of these? 1.0 for active, 0.0 for inactive

# molecule, classification
data = [
    ("Cc1c2cnccc2c(C)c2c1c1cc(C3OCCCO3)ccc1n2C", 1.0),
    ("Cc1ncc(C(=O)Nc2ccc(CN3CCN(C)CC3)c(C(F)(F)F)c2)cc1C#Cc1cnc(N)c2ccncc12", 1.0),
    ("COc1ccc(/C=C/C(=O)c2cc3c(N)c(C(=O)Nc4ccc(OC)cc4)sc3nc2C)cc1", 0.0),
]

Can you look up the reported call for COc1ccc(OC)c(Nc2nnc(-c3ccc(Cl)cc3)o2)c1 for me?
0.0

Can you look up the reported call for COc1ccc(C2CC(c3ccc(Nc4nc(Nc5ccc(F)cc5)nc(Nc5ccc(F)cc5)n4)cc3)=NN2C(C)=O)cc1 (stereo not given) for me?
0.0

Can you look up the reported call for Cc1ccc(C)c(-n2c(-c3ccc(Br)cc3)csc2=NC(=O)c2ccccc2F)c1 for me?
0.0

Can you look up the reported call for C=CC(=O)N1CCN(c2ccc3cccc(NC(=O)c4cnc(C)cn4)c3n2)CC1 for me?
0.0

Can you look up the reported call for O=C1/C=C/[C@@H](O)[C@@H]2C[C@@H](O)C[C@H]2/C=C/CCC[C@H](CCOCc2ccccc2)O1 for me?
1.0

Can you look up the reported call for COc1ccc(C/C(C)=C(\c2ccc(O)cc2)c2ccc(OCCN3CCCC3)cc2)cc1 for me?
0.0

Can you look up the reported call for O=S(=O)(c1ccccc1)N1CCCN(c2nc(-c3ccccc3)nc3nc(-c4ccccc4)oc23)CC1 for me?
0.0

Can you look up the reported call for Nc1nc(C(=O)N/N=C/c2ccc(N3CCOCC3)cc2)nn1-c1ccc(S(N)(=O)=O)cc1 for me?
0.0
